Every entry's value here was drawn from paper PMC4806471.

Test: Cytotoxicity in normal PBMC from healthy donors (CellTiter-Glo)
Format: cell-based
Details: human, 10,000 nM, read-out: Viability of normal PBMC at highest concentration tested
ASSAY_ENDPOINT: viability at 48 h, 10000 nM

Problem: Param item = CC(C)C[C@H](NC(=O)CNC(=O)c1cc(Cl)ccc1Cl)B(O)O ; retrieve measured viability at 48 h, 10000 nM.
Solution: > 50%
